B1: glmS ribozyme (parent)
chain: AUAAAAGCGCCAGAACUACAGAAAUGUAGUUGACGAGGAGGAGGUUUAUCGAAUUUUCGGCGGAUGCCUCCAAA

# Variants of: B1
# Protocol text: self-cleavage kobs at 10000 uM GlcN6P; higher = faster cleavage; RNA array
# Experimental context: with glucosamine-6-phosphate
Fewer inactive variants are shown than the library holds.
So I've got a bunch of variants here, and I need their self-cleavage kobs at 10000 uM GlcN6P values.
Number only, in s⁻¹; omit the unit.

Could you please provide reported self-cleavage kobs at 10000 uM GlcN6P for AUAAAAGCGCCAGAACUACAGAAAUGUAUUUGACGAGGAGGAGGUUGAUCGAAUUUUCGGCGGAUGGCUCCAAA [G29U U47G C67G] ? Thanks!
0.000103

Could you please provide reported self-cleavage kobs at 10000 uM GlcN6P for AUAAAAGCGCCAGAACUACAGAAAUGUAGUUGACGAGGAGGAGGUUAAUCGAGUUUUCGGCGGAUGCCUCCAAA [U47A A53G] ? Thanks!
0.04

Could you please provide reported self-cleavage kobs at 10000 uM GlcN6P for AUAAAAGCGCCGGAACUACAGAAAUGUAGUUGACGAGGAGUAGGUUUAUCGAAUUUUCGGCGGAUGCCUCCAAA [A12G G41U] ? Thanks!
0.000377

Could you please provide reported self-cleavage kobs at 10000 uM GlcN6P for AUAAAAGCGCCAGAACUACAGAAAUGUAGAUGACGAGGAGGAGGUUUAUCGAAUUUUCGGCGGAUGCCUCCAAA [U30A] ? Thanks!
0.0114

Could you please provide reported self-cleavage kobs at 10000 uM GlcN6P for AUAAAAGCGCCAGAACUACAGAAAUGUAGUUGACGAGGAGGAGGUUUAUCGAAUUUUCGGCGGAAGCCUACAAA [U65A C70A] ? Thanks!
8.15e-05

Could you please provide reported self-cleavage kobs at 10000 uM GlcN6P for AUAAAAGCGCCAGAAUUACAGAAAUGUAGUUGACGAGGAGGAGGUUUAUCGAAUUUUCGGCGGAUGCGUCCAAA [C16U C68G] ? Thanks!
7.86e-05

Could you please provide reported self-cleavage kobs at 10000 uM GlcN6P for AUAAAAGCGCCAGAACUACAGAAAUGUAGUUGACGAGGAGGAGGUUUAUCGAAUUUACGGCGGAUGCUUCCAAA [U57A C68U] ? Thanks!
0.000143

Could you please provide reported self-cleavage kobs at 10000 uM GlcN6P for AUAAAAGUGCCAGAAUUACAGAAAUGUAGUUGACGAGGAGGAGGUUUAUGGAAUUUUCGACGGAUUCCUCCAAA [C8U C16U C50G G60A G66U] ? Thanks!
0.000101

Could you please provide reported self-cleavage kobs at 10000 uM GlcN6P for AUAAAAGCGCCAGGACUACAGAAAUGUAGUUGACGAGGAGGGGGUUUAUCGAGUUUUCGGCGGAUGCCUCCAAA [A14G A42G A53G] ? Thanks!
0.0405

Could you please provide reported self-cleavage kobs at 10000 uM GlcN6P for AUAAAAGCGCCAGAACUACAGAAAUGUAGUCGACGAGGAGGAGGUUUAUCGAAUUUUCGGCGGAAGCCUCCAAA [U31C U65A] ? Thanks!
0.000385

Could you please provide reported self-cleavage kobs at 10000 uM GlcN6P for AUAAAAGCGCCAGACCUACAGAAAUGUAGUGGACGAGGAGGAGGUUUAUCGAAUUUUCGGCGGAUGCCUCCAAA [A15C U31G] ? Thanks!
0.00376

Could you please provide reported self-cleavage kobs at 10000 uM GlcN6P for AUAAAAGCGCCAGAACUACAGAAAUGUAGUUGACGAGGAGGAGGUUUAUCGACUUUUCGGCGGAUUCCUCCAAA [A53C G66U] ? Thanks!
0.00039

Could you please provide reported self-cleavage kobs at 10000 uM GlcN6P for AUAAAAGCGCCAGAACUACAGAAAUGUAGUUGACGAGGAGGAGGAUUAUCGAAAUUUCGGCGGAUGCCUACAAA [U45A U54A C70A] ? Thanks!
8.25e-05

Could you please provide reported self-cleavage kobs at 10000 uM GlcN6P for AUAAAAGCGCCAGAACUACAGAAAUGUAGUUAACGAGGAGGAGGUUUAUCGAGUUUUCGGCGGAUGCCUCCAAA [G32A A53G] ? Thanks!
0.00294

Could you please provide reported self-cleavage kobs at 10000 uM GlcN6P for AUAAAAGCGCCAAAACUACAGAAAUGUAGUUGACGAGGACGAGGUUUAUCGAAUUUUCGGCGGAUGCCUCCAAA [G13A G40C] ? Thanks!
4.56e-05

Could you please provide reported self-cleavage kobs at 10000 uM GlcN6P for AUAAAAGCGCCAGAAAUACAGAAAUGUAUUUGACGAGGAGGAGGUUUAUCGAAUUUUAGGCGGAUGCCUCCAAA [C16A G29U C58A] ? Thanks!
0.000415

Could you please provide reported self-cleavage kobs at 10000 uM GlcN6P for AUAAAAGCGCCAGAACUACAGAAAUGUAGUUGACGAGGAGGAGGUUUAUCGAGUUUUCGGCGGAUGACUCCAAA [A53G C67A] ? Thanks!
0.00957

Could you please provide reported self-cleavage kobs at 10000 uM GlcN6P for AUAAAAGCGCCAGAAUUACAGAAAUGUAGUUGACGAGGAGGAGGUUUAUCGAACUUUCGGCGGAUGCCUCCAAA [C16U U54C] ? Thanks!
0.0254

Could you please provide reported self-cleavage kobs at 10000 uM GlcN6P for AUAAAAGCGCCAGAACUACAGAAAUGUAGUUGACGAGGAGGAGGUUCAUCGAAGUUUCGGCGGAUGCCUCCAAA [U47C U54G] ? Thanks!
0.00359

Could you please provide reported self-cleavage kobs at 10000 uM GlcN6P for AUAAAAGCGCCAGAACUACAGAAAUGUAGUUGACGAGGAGGAGGUUUAUCGCAUUUUCGGCGGAUGCGUCCAAA [A52C C68G] ? Thanks!
2.34e-05

Could you please provide reported self-cleavage kobs at 10000 uM GlcN6P for AUAAAAGCGCCAGAACUACAGAAAUGUAGUUGACGAGGAGGAGGUUUAUCGAAAUUGCGGCGGAUGCCUCCAAA [U54A U57G] ? Thanks!
5.94e-05

Could you please provide reported self-cleavage kobs at 10000 uM GlcN6P for AUAAAAGCGCCCGAACUACAGAAAUGUAGUUGACGAGGACGAGGUUUAUCGAAUUUUCGGCGGAUGCCUCCAAA [A12C G40C] ? Thanks!
0.000746

Could you please provide reported self-cleavage kobs at 10000 uM GlcN6P for AUAAAAGCGCCAGAACUACAGAAAUGUAGUUGACGAGGAGGAGGUUUAUCGGAUUUCCGGCGGAUGCCUCCAAA [A52G U57C] ? Thanks!
0.000314

Could you please provide reported self-cleavage kobs at 10000 uM GlcN6P for AUAAAAGCGCCAGAACUACAGAAAUGUAGUUAACGAGGAGGAGGUUUAUCGAAUUUUCGGCGGAUGCCUCUAAA [G32A C71U] ? Thanks!
0.00326

Could you please provide reported self-cleavage kobs at 10000 uM GlcN6P for AUAAAAGCGCCAGAACUACAGAAAUGUAGUUGACGAGGAGGAGGUUUAUCGAAUUUCCGGCGGAGGCCUCCAAA [U57C U65G] ? Thanks!
3.07e-05

Could you please provide reported self-cleavage kobs at 10000 uM GlcN6P for AUAAAAGCGGCCGAACUACAGAAAUGUAGUUGACGAGGAGGAGGUUUAUCGAAUUUUCGGCGGAUGCCUCCAAA [C10G A12C] ? Thanks!
2.24e-05

Could you please provide reported self-cleavage kobs at 10000 uM GlcN6P for AUAAACGCGCCAGAACUACAGAAAUGUAGUUGACGAGGAGGAGGUUUAUCGAACUUUCGGCGGAUGCCUCCAAA [A6C U54C] ? Thanks!
8.4e-05

Could you please provide reported self-cleavage kobs at 10000 uM GlcN6P for AUAAAAGCGCCAGAACUACAGAAAUGUAGUUAACGAGGAGGAGGUUUAUCGAAUUUUCGGCGGAAGCCUCCAAA [G32A U65A] ? Thanks!
0.000243
